Test system: A549
protocol-text: Growth inhibition of human A549 cells at 10 uM after 48 hrs by SRB assay
Assay type: functional
condition-label: A549, 48 h, read-out: GI
readout: inhibition of growth at 10 µM (%)

>>> df
                                  smiles_str  readout_value
 0  O=C1C(=O)N(CCn2cc(CN3C(=O)C(=O)c4ccccc43)nn2)c2ccccc21             96
 1  O=C1C(=O)N(CCn2cc(CN3C(=O)C(=O)c4cc([N+](=O)[O-])ccc43)nn2)c2ccccc21             13
 2  Cc1ccc2c(c1)C(=O)C(=O)N2Cc1cn(CCN2C(=O)C(=O)c3ccccc32)nn1             35
 3  Cc1ccc2c(c1)C(=O)C(=O)N2Cc1cn(CCN2C(=O)C(=O)c3cc(Cl)ccc32)nn1             81
 4  O=C1C(=O)N(CCn2cc(CN3C(=O)C(=O)c4cc([N+](=O)[O-])ccc43)nn2)c2ccc(Cl)cc21             11
 5  O=C1C(=O)N(CCn2cc(CN3C(=O)C(=O)c4cc(Cl)ccc43)nn2)c2ccccc21             94
 6  O=C1C(=O)N(CCn2cc(CN3C(=O)C(=O)c4cc(Br)ccc43)nn2)c2ccc(Cl)cc21             10
 7  O=C1C(=O)N(CCn2cc(CN3C(=O)C(=O)c4cc(F)ccc43)nn2)c2ccccc21             11
 8  Cc1ccc2c(c1)C(=O)C(=O)N2Cc1cn(CCN2C(=O)C(=O)c3cc(F)ccc32)nn1              8
 9  O=C1C(=O)N(CCn2cc(CN3C(=O)C(=O)c4cc([N+](=O)[O-])ccc43)nn2)c2ccc(F)cc21              7
10  O=C1C(=O)N(CCn2cc(CN3C(=O)C(=O)c4ccccc43)nn2)c2ccc(F)cc21              6
11  O=C1C(=O)N(CCn2cc(CN3C(=O)C(=O)c4cc(F)ccc43)nn2)c2ccc(F)cc21              5
12  O=C1C(=O)N(CCn2cc(CN3C(=O)C(=O)c4cc(Br)ccc43)nn2)c2ccccc21             41
13  O=C1C(=O)N(CCn2cc(CN3C(=O)C(=O)c4cc(Br)ccc43)nn2)c2ccc(F)cc21             41
14  O=C1C(=O)N(CCn2cc(CN3C(=O)C(=O)c4cc(Cl)ccc43)nn2)c2ccc(F)cc21             64

###

Tested on: Caco-2
protocol-text: Growth inhibition of human Caco2 cells at 50 uM after 48 hrs by SRB assay
Assay type: functional
condition-label: Caco-2, 48 h, read-out: GI
readout: inhibition of growth at 50 µM (%)

                                 smiles_str  readout_value
0  O=C1C(=O)N(CCn2cc(CN3C(=O)C(=O)c4cc([N+](=O)[O-])ccc43)nn2)c2ccc(F)cc21              0
1  O=C1C(=O)N(CCn2cc(CN3C(=O)C(=O)c4cc(Br)ccc43)nn2)c2ccccc21             10
2  O=C1C(=O)N(CCn2cc(CN3C(=O)C(=O)c4cc(Br)ccc43)nn2)c2ccc(F)cc21              7
3  O=C1C(=O)N(CCn2cc(CN3C(=O)C(=O)c4cc([N+](=O)[O-])ccc43)nn2)c2ccc(Cl)cc21             21
4  Cc1ccc2c(c1)C(=O)C(=O)N2Cc1cn(CCN2C(=O)C(=O)c3cc(F)ccc32)nn1             15
5  Cc1ccc2c(c1)C(=O)C(=O)N2Cc1cn(CCN2C(=O)C(=O)c3cc(Cl)ccc32)nn1             52
6  O=C1C(=O)N(CCn2cc(CN3C(=O)C(=O)c4cc([N+](=O)[O-])ccc43)nn2)c2ccccc21              4
7  O=C1C(=O)N(CCn2cc(CN3C(=O)C(=O)c4cc(Cl)ccc43)nn2)c2ccc(F)cc21             12

###

# inhibition of growth at 100 µM per record follows
Test system: PC-3
protocol-text: Growth inhibition of human PC3 cells at 100 uM after 48 hrs by SRB assay
Type: functional
condition-label: PC-3, 48 h, read-out: GI
readout: inhibition of growth at 100 µM (%)

In [3]: df
Out[3]:
                                  smiles_str  readout_value
 0  O=C1C(=O)N(CCn2cc(CN3C(=O)C(=O)c4cc(Br)ccc43)nn2)c2ccccc21            100
 1  O=C1C(=O)N(CCn2cc(CN3C(=O)C(=O)c4cc(Cl)ccc43)nn2)c2ccccc21            100
 2  O=C1C(=O)N(CCn2cc(CN3C(=O)C(=O)c4cc(Cl)ccc43)nn2)c2ccc(F)cc21              9
 3  O=C1C(=O)N(CCn2cc(CN3C(=O)C(=O)c4ccccc43)nn2)c2ccc(F)cc21             82
 4  Cc1ccc2c(c1)C(=O)C(=O)N2Cc1cn(CCN2C(=O)C(=O)c3cc(Cl)ccc32)nn1             70
 5  Cc1ccc2c(c1)C(=O)C(=O)N2Cc1cn(CCN2C(=O)C(=O)c3ccccc32)nn1            100
 6  O=C1C(=O)N(CCn2cc(CN3C(=O)C(=O)c4cc([N+](=O)[O-])ccc43)nn2)c2ccc(F)cc21             33
 7  O=C1C(=O)N(CCn2cc(CN3C(=O)C(=O)c4ccccc43)nn2)c2ccccc21            100
 8  O=C1C(=O)N(CCn2cc(CN3C(=O)C(=O)c4cc(Br)ccc43)nn2)c2ccc(F)cc21             51
 9  Cc1ccc2c(c1)C(=O)C(=O)N2Cc1cn(CCN2C(=O)C(=O)c3cc(F)ccc32)nn1             48
10  O=C1C(=O)N(CCn2cc(CN3C(=O)C(=O)c4cc(F)ccc43)nn2)c2ccc(F)cc21             30

Cited source: ChEMBL document CHEMBL2062394
